test: qHTS assay to identify small molecule antagonists of the sonic hedgehog signaling (Shh) pathway - cell viability counter screen (AID 1259367); settings: NIH/3T3 Gli1-Luc viability, CellTiter-Fluor, 24 h; series mostly up to 92.4 µM; note: nearly all actives have a fitted effect of over 55% in size
Results filed as inconclusive are left out. The source made the active and inactive calls. Calls come from the whole dose curve; as a rule, active = well fitted cell-killing curve with a large enough effect in the repeat runs; inconclusive = weak or mixed curves, or effect the other way; inactive = no such curve, though single readings can be large or run the other way.
Readout type: outcome

[
  {
    "Compound structure string": "Cc1cccc(C)c1NC(=O)CN1CCCC1",
    "Readout type": "outcome",
    "Recorded measurement": "inactive"
  },
  {
    "Compound structure string": "C=C(C)C(=O)OCCCCCCCCCCOC(=O)C(=C)C",
    "Readout type": "outcome",
    "Recorded measurement": "inactive"
  },
  {
    "Compound structure string": "O=[N+]([O-])c1cccc(I)c1",
    "Readout type": "outcome",
    "Recorded measurement": "inactive"
  }
]

----------
Assay: qHTS assay for small molecules that induce genotoxicity in human embryonic kidney cells expressing luciferase-tagged ATAD5 (AID 651632); note: nearly all actives have a fitted effect of over 15% in size
Settings: HEK293T ATAD5-luciferase induction, 16 h; series mostly up to 83.3 µM
Text: U.S. Tox21 Program National Center for Advancing Translational Sciences [NCATS] NIH Chemical Genomics Center [NCGC] U.S. Environmental Protection Agency [EPA] National Institutes of Environmental Health Sciences [NIEHS] National Toxicology Program [NTP] U.S. Food and Drug Administration [FDA] Tox21 Assay Overview: As cancer cells divide rapidly and during every cell division they need to duplicate their genome by DNA replication. The failure to do so results in the cancer cell death. […]
Records with an inconclusive call do not appear. Activity calls are given as the source filed them. Calls come from the whole dose curve; as a rule, active = well fitted activation curve with a large enough effect in the repeat runs; inconclusive = weak or mixed curves; inactive = no such curve, though single readings can be large or run the other way.
Write down the outcome that applies. Available outcomes: active, inactive

Given `Cc1cc(SC2=C(O)C[C@@](CCc3ccc(N)cc3)(C(C)C)OC2=O)c(C(C)(C)C)cc1CO` , state the outcome it received in this test.
inactive

Hello, I am checking results. What call was entered for `CC1(C)CC(O)CC(C)(C)N1[O]` ?
inactive

What did the test return for `Oc1ccc(Oc2ccccc2)cc1` ?
inactive

Which result was noted for this molecule in the test: `CC(C)=CCC/C(C)=C/C=N/O`
inactive

Called result for `CC(=O)c1ccc(Cl)c(Cl)c1Cl`
inactive

# lookup: test call for C/C(=C\C(C)CC(C)CC(C)C)C1CC(=O)OC1=O (stereo not drawn)
inactive

Write down the call the test reported for this molecule. Item: `C(/C=C/C=C/Nc1ccccc1)=Nc1ccccc1`
inactive

// outcome(item) with item = CC(C)=CCCC(C)C=O (stereo not drawn)
inactive

State the result this test recorded for `C=Cc1ccc(C=C)cc1` .
inactive

Status in this test for `FC(F)(Cl)C(F)(Cl)Cl` ?
inactive

What did the test return for `NCCOCCOCCN` ?
inactive

Write down the call the test reported for this molecule. Item: `CCCCCCCCCCCCSC#N`
inactive

Please let me know the test result on file for `O=C1C=CCCC1` .
inactive

What classification did `CC(C)=CCC[C@H](C)CCO` end up with in this test?
inactive

Answer briefly: the call reported for `CC1(C)CC(=O)CC(C)(C)N1` in this assay.
inactive

Short answer needed: outcome of this test for `CCCCCCCCS` ?
inactive

Could you check what this test reported for CCN(CCCCOC(=O)c1ccc(OC)c(OC)c1)C(C)Cc1ccc(OC)cc1 (stereo not drawn) ?
inactive

Entry `COc1ccc(/C=C/S(=O)(=O)NC(=O)c2ccc(C)cc2Cl)cc1` : call = ?
active

Recorded test call requested for `O=C1c2ccccc2C(=O)c2c1ccc(O)c2O`
inactive

Hi, do you know how `CC(=O)CC/C=C(\C)CC/C=C(\C)CC/C=C(\C)CCC=C(C)C` came out in this test?
inactive

What outcome does the record of this test show for C=CC(O)CCCCC (stereo not drawn) ?
inactive

I would be grateful if you could indicate the recorded call for `OCCOc1cccc(OCCO)c1` .
inactive

Could you check what this test reported for C=C[Si]1(C)O[Si](C)(C=C)O[Si](C)(C=C)O[Si](C)(C=C)O1 (stereo not drawn) ?
inactive

Give the logged outcome of this assay for the following molecule: `O=c1[nH][nH]c2ccccc12`
inactive

# fetch the recorded call for `C/C=C1\[C@H]2C=C(C)C[C@]1(N)c1ccc(=O)[nH]c1C2` here
inactive

Tell me the assay call for CC(O)CN (stereo not drawn) please.
inactive

Returns: the outcome recorded for `Oc1ccc(CCNCCCCCCNCCc2ccccc2)cc1O` in this assay.
inactive

Record request — test call for `C[C@H]1C[C@H]2[C@@H]3CCC4=CC(=O)C=C[C@]4(C)[C@@]3(F)[C@@H](O)C[C@]2(C)[C@@]1(O)C(=O)COP(=O)(O)O`
inactive

----------
target: Aryl hydrocarbon receptor (Homo sapiens) (UniProt P35869); assay: qHTS assay to identify small molecule that activate the aryl hydrocarbon receptor (AhR) signaling pathway (AID 743085); conditions: HepG2 AhR-luc (HG2L7.5c1), luciferase, 24 h; series mostly up to 70.3 µM; note: nearly all actives have a fitted effect of over 15% in size;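 for activation: HG2L7.5c1 human HepG2 liver cells with stably integrated DRE-driven firefly reporter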
Sequence (P35869 whole entry, looked up): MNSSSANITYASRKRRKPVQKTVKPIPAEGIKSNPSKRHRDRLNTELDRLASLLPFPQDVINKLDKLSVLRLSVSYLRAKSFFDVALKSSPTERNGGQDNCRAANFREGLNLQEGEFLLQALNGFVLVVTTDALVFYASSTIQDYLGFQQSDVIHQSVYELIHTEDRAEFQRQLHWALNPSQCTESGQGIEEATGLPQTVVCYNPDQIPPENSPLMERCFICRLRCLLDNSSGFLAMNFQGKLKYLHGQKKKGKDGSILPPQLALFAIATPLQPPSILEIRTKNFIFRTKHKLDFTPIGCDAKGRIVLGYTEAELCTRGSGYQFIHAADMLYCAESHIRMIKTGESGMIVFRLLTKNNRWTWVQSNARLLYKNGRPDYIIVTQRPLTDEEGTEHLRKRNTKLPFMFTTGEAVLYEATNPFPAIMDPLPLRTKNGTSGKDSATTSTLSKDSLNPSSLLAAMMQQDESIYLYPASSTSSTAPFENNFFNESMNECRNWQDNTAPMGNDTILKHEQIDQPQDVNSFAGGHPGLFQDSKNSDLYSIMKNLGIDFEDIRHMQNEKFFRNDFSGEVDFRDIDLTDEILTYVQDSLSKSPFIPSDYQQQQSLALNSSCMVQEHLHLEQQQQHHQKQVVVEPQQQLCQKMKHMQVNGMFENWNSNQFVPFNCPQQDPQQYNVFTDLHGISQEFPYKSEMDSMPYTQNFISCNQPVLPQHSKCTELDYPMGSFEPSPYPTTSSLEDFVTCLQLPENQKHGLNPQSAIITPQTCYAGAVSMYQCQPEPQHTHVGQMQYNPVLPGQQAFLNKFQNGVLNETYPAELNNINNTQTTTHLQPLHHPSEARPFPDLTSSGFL
Results filed as inconclusive are left out. The source made the active and inactive calls. The call rests on the fitted dose curve; in most records, active means well fitted activation curve with a large enough effect in the repeat runs; inconclusive means weak or mixed curves; inactive means no such curve, though single readings can be large or run the other way.
Use one of these outcomes when replying: True (active), False (inactive)

# outcome recorded in this test, key = `C=Cc1ccc(C=C)cc1`
False

Test call for this compound, please: `CC[C@H](NC(C)C)[C@H](O)c1ccc(O)c2[nH]c(=O)ccc12`
False

Please state the recorded outcome for this compound: `CC(=O)OCC(=O)[C@@]1(O)CC[C@H]2[C@@H]3CCC4=CC(=O)C=C[C@]4(C)[C@@]3(F)[C@@H](O)C[C@@]21C`
False

Please indicate how the test categorized `O=C(N[C@@H](Cc1ccccc1)[C@@H](O)C(=O)N1C[C@@H](O)[C@@H](O)C1)c1cc2cc(Cl)ccc2[nH]1` .
False

Please share the test call associated with `Cc1c(Cl)cccc1Nc1ccccc1C(=O)O` .
False

Just curious, what result did `Cc1ccc(S(=O)(=O)NC(=O)NC2CCCC2)cc1` get here?
False

Called result for `CC(C)(C)c1ccc(CCC=O)cc1`
False

Test call for this compound, please: `CCOC(=O)CC(O)(CC(=O)OCC)C(=O)OCC`
False

Check the results log: what was the call for `COc1cccc([C@H](O)C2CCN(CCc3ccc(F)cc3)CC2)c1OC` ?
False

Short answer needed: outcome of this test for `CCCc1nc(C)c2c(=O)[nH]c(-c3cc(S(=O)(=O)N4CCN(CC)CC4)ccc3OCC)nn12` ?
False

Just curious, what result did `COc1cc(CNC(=O)CCCC/C=C/C(C)C)ccc1O` get here?
False

Given `CC(C)CC(C)(C)C` , state the outcome it received in this test.
False

Hi, sorry to bother you, what did the test record for `O=C(O)c1cc(C(=O)O)c(C(=O)O)cc1C(=O)O` ?
False

Identify the outcome logged in this assay for the compound shown: CC(C)=CCCC(C)C=O (centres undefined)
False

Dear all, I need the recorded test outcome for `C=C(C)C(=O)OCCCCCCCCCCOC(=O)C(=C)C` , thank you.
False

Could you please tell me the result logged for `O=C(OCCOCCOCCOC(=O)c1ccccc1)c1ccccc1` in this assay?
False

Which result was noted for this compound in the test: CC(O)C(C)O (centres undefined)
False

Please indicate how the test categorized `CCCCCO` .
False

Lab log entry: FC1(F)C(F)(F)C(F)(F)C2(F)C(F)(C1(F)F)C(F)(F)C(F)(F)C1(F)C(F)(F)C(F)(F)C(F)(F)C(F)(F)C12F (centres undefined) — outcome as called in the assay?
False

What call does the record list for `CC1(C)CC(=O)CC(C)(C)N1` ?
False

Identify the outcome logged in this assay for the compound shown: `c1ccc(CN(Cc2ccccc2)Cc2ccccc2)cc1`
False

Just curious, what result did `Nc1ncnc2c1ncn2[C@@H]1O[C@H](CO)[C@@H](O)[C@H]1O` get here?
False

Call for entry `Cc1ccc(NC=O)c(C)c1` :
False

Hi, do you know how `Cc1ccc(NC(=O)c2ccc(CN3CCN(C)CC3)cc2)cc1Nc1nccc(-c2cccnc2)n1` came out in this test?
True

----------
biological target: Nuclear receptor ROR-gamma (Homo sapiens); experiment: qHTS assay to identify small molecule antagonists of the retinoid-related orphan receptor gamma (ROR-gamma) signaling pathway (AID 1159521;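 note: CHO cells with doxycycline inducible ROR-gamma driving an RORE luciferase reporter; top concentration of the series differs between compounds; nearly all actives have a fitted effect of over 50% in size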); conditions: Tet-on RORgamma CHO cells, RORE-luciferase, 16 h; series mostly up to 92.4 µM
Results filed as inconclusive are left out. Calls of active or inactive are those of the source. The call rests on the fitted dose curve; in most records, active means well fitted inhibition curve with a large enough effect in the repeat runs; inconclusive means weak or mixed curves, or effect the other way; inactive means no such curve, though single readings can be large or run the other way.
Readout type: activity change, negative = inhibition

Consider the following illustrative entries.
[
  {
    "Compound": "CC(=O)S[C@H](C(=O)N[C@H]1Cc2ccccc2[C@H]2CCC[C@@H](C(=O)O)N2C1=O)C(C)C",
    "Recorded measurement": "inactive"
  },
  {
    "Compound": "CC(=O)Nc1cccc(N)c1",
    "Recorded measurement": "inactive"
  },
  {
    "Compound": "CC(O)CN (stereo unspecified)",
    "Recorded measurement": "inactive"
  },
  {
    "Compound": "CC(C)(C)c1cc(C=O)cc(C(C)(C)C)c1O",
    "Recorded measurement": "inactive"
  }
]

For the compound `Cc1nc2sccn2c(=O)c1CCN1CCC(=C(c2ccc(F)cc2)c2ccc(F)cc2)CC1` , report activity change, negative = inhibition.
inactive

Return value of activity change, negative = inhibition for input `CCCC(=O)OCc1ccccc1` , no commentary.
inactive
